Hello, the source for this data is patent US7910559B2, in case you need it.

tested on: THP-1; assay type: cell-based; settings: human, 24 h, 50 μM
measure: Percentage of viable cells after treatment (%)
Numbers only here, please. The scale is %.

C=CC(=O)O[C@H]1[C@H](C)[C@@H](O[C@@H]2O[C@H](C)C[C@H](N(C)C)[C@H]2O)[C@](C)(OC)C[C@@H](C)C(=O)[C@H](C)[C@@H](O)[C@](C)(O)[C@@H](CC)OC(=O)[C@@H]1C [Example 4]	100

// Percentage of viable cells after treatment value for CC[C@H]1OC(=O)[C@H](C)[C@@H](OC(=O)CCN(CC)CC)[C@H](C)[C@@H](O[C@@H]2O[C@H](C)C[C@H](N(C)C)C2O)[C@](C)(O)C[C@@H](C)CN(C)[C@H](C)[C@@H](O)[C@]1(C)O (stereo in doubt) [Example 12] : 100

// Percentage of viable cells after treatment value for CC[C@H]1OC(=O)[C@H](C)[C@@H](OC(=O)CCN2CCCN(CCCN3CCCC3)CC2)[C@H](C)[C@@H](O[C@@H]2O[C@H](C)C[C@H](N(C)C)[C@H]2O)[C@](C)(OC)C[C@@H](C)C(=O)N[C@H](C)[C@@H](O)[C@]1(C)O [Example 24] : 100

// Percentage of viable cells after treatment value for CC[C@H]1OC(=O)[C@H](C)[C@@H](OC(=O)CCN(CC)CC)[C@H](C)[C@@H](O[C@@H]2O[C@H](C)C[C@H](NC)[C@@H]2O)[C@](C)(OC)C[C@@H](C)C(=O)N[C@H](C)[C@@H](O)[C@]1(C)O [Example 10] : 100

// Percentage of viable cells after treatment value for CC[C@H]1OC(=O)[C@H](C)[C@@H](OC(=O)CCN2CCN(CCN(CC)CC)CC2)[C@H](C)[C@@H](O[C@@H]2O[C@H](C)C[C@H](N(C)C)[C@H]2O)[C@](C)(OC)C[C@@H](C)C(=O)N[C@H](C)[C@@H](O)[C@]1(C)O [Example 18] : 100

// Percentage of viable cells after treatment value for CC[C@H]1OC(=O)[C@H](C)[C@@H](OC(=O)CCN2CCN(CCN(C)C)CC2)[C@H](C)[C@@H](O[C@@H]2O[C@H](C)C[C@H](N(C)C)[C@H]2O)[C@](C)(OC)C[C@@H](C)C(=O)N[C@H](C)[C@@H](O)[C@]1(C)O [Example 19] : 100

// Percentage of viable cells after treatment value for CC[C@H]1OC(=O)[C@H](C)[C@@H](OC(=O)CCN(C)CCO)[C@H](C)[C@@H](O[C@@H]2O[C@H](C)C[C@H](N(C)C)[C@H]2O)[C@](C)(OC)C[C@@H](C)C(=O)N[C@H](C)[C@@H](O)[C@]1(C)O [Example 23] : 100

* * *

Below, each of the compounds is paired with its reported inhibition at 50 µM value.
tested on: human IL-8; assay: Inhibition of IL-8 production by stimulated human peripheral blood leukocytes in vitro (ELISA); type: cell-based; details: Homo sapiens, Leukocyte, PBL, zymosan stimulation, compound 50 μM; read-out: Percentage of inhibition of IL-8 production
Answer by giving the amount and then stating its unit.

Sample answers from the record:
C=CC(=O)O[C@H]1[C@H](C)[C@@H](O[C@@H]2O[C@H](C)C[C@H](N(C)C)[C@H]2O)[C@](C)(OC)C[C@@H](C)C(=O)[C@H](C)[C@@H](O)[C@](C)(O)[C@@H](CC)OC(=O)[C@@H]1C	100%
CC[C@H]1OC(=O)[C@H](C)[C@@H](O[C@H]2C[C@@](C)(OC)[C@@H](O)[C@H](C)O2)[C@H](C)[C@@H](O[C@@H]2O[C@H](C)C[C@H](N(C)C)[C@H]2O)[C@](C)(OC)C[C@@H](C)C(=O)[C@H](C)[C@@H](O)[C@]1(C)O [clarithromycin, reference compound]	0%
CC[C@H]1OC(=O)[C@H](C)[C@@H](OC(=O)CCN2CCCN(CCCN3CCCC3)CC2)[C@H](C)[C@@H](O[C@@H]2O[C@H](C)C[C@H](N(C)C)[C@H]2O)[C@](C)(OC)C[C@@H](C)C(=O)N[C@H](C)[C@@H](O)[C@]1(C)O	92%
CC[C@H]1OC(=O)[C@H](C)[C@@H](OC(=O)CCN(CC)CC)[C@H](C)[C@@H](O[C@@H]2O[C@H](C)C[C@H](NC)[C@@H]2O)[C@](C)(OC)C[C@@H](C)C(=O)N[C@H](C)[C@@H](O)[C@]1(C)O	82%

// inhibition at 50 µM value for CC[C@H]1OC(=O)[C@H](C)[C@@H](O[C@H]2C[C@@](C)(OC)[C@@H](O)[C@H](C)O2)[C@H](C)[C@@H](O[C@@H]2O[C@H](C)C[C@H](N(C)C)[C@H]2O)[C@](C)(O)C[C@@H](C)CN(C)[C@H](C)[C@@H](O)[C@]1(C)O [azithromycin, reference compound] : 0%

// inhibition at 50 µM value for CC[C@H]1OC(=O)[C@H](C)[C@@H](OC(=O)CCN(CC)CC)[C@H](C)[C@@H](O[C@@H]2O[C@H](C)C[C@H](N(C)C)[C@H]2O)[C@](C)(OC)C[C@@H](C)C(=O)[C@H](C)[C@@H](O)[C@]1(C)O : 100%

// inhibition at 50 µM value for CC[C@H]1OC(=O)[C@H](C)[C@@H](OC(=O)CCN(C)CCO)[C@H](C)[C@@H](O[C@@H]2O[C@H](C)C[C@H](N(C)C)[C@H]2O)[C@](C)(OC)C[C@@H](C)C(=O)N[C@H](C)[C@@H](O)[C@]1(C)O : 98%

// inhibition at 50 µM value for CC[C@H]1OC(=O)[C@H](C)[C@@H](OC(=O)CCN2CCN(CCN(C)C)CC2)[C@H](C)[C@@H](O[C@@H]2O[C@H](C)C[C@H](N(C)C)[C@H]2O)[C@](C)(OC)C[C@@H](C)C(=O)N[C@H](C)[C@@H](O)[C@]1(C)O : 26%

// inhibition at 50 µM value for CC[C@H]1OC(=O)[C@H](C)[C@@H](OC(=O)CCN(CC)CC)[C@H](C)[C@@H](O[C@@H]2O[C@H](C)C[C@H](N(C)C)C2O)[C@](C)(O)C[C@@H](C)CN(C)[C@H](C)[C@@H](O)[C@]1(C)O (stereo in doubt) : 52%

// inhibition at 50 µM value for CC[C@H]1OC(=O)[C@H](C)[C@@H](OC(=O)CCN2CCN(CCN(CC)CC)CC2)[C@H](C)[C@@H](O[C@@H]2O[C@H](C)C[C@H](N(C)C)[C@H]2O)[C@](C)(OC)C[C@@H](C)C(=O)N[C@H](C)[C@@H](O)[C@]1(C)O : 21%

* * *

Below, each of the compounds is paired with its reported inhibition at 10 µM value.
test system: human IL-1β; assay: Inhibition of IL-1β production by stimulated human peripheral blood leukocytes in vitro (ELISA); assay type: cell-based; settings: Homo sapiens, Leukocyte, PBL, LPS stimulation, compound 10 μM; read-out: Percentage of inhibition of IL-1β production
Numbers only here, please. The scale is %.

Sample answers from the record:
C=CC(=O)O[C@H]1[C@H](C)[C@@H](O[C@@H]2O[C@H](C)C[C@H](N(C)C)[C@H]2O)[C@](C)(OC)C[C@@H](C)C(=O)[C@H](C)[C@@H](O)[C@](C)(O)[C@@H](CC)OC(=O)[C@@H]1C [Example 4]	75
CC[C@H]1OC(=O)[C@H](C)[C@@H](OC(=O)CCN(C)CCO)[C@H](C)[C@@H](O[C@@H]2O[C@H](C)C[C@H](N(C)C)[C@H]2O)[C@](C)(OC)C[C@@H](C)C(=O)N[C@H](C)[C@@H](O)[C@]1(C)O [Example 23]	73

Let me check: CC[C@H]1OC(=O)[C@H](C)[C@@H](O[C@H]2C[C@@](C)(OC)[C@@H](O)[C@H](C)O2)[C@H](C)[C@@H](O[C@@H]2O[C@H](C)C[C@H](N(C)C)[C@H]2O)[C@](C)(O)C[C@@H](C)CN(C)[C@H](C)[C@@H](O)[C@]1(C)O [azithromycin, reference compound] , system human IL-1β, measured inhibition at 10 µM is 28

Let me check: CC[C@H]1OC(=O)[C@H](C)[C@@H](OC(=O)CCN(CC)CC)[C@H](C)[C@@H](O[C@@H]2O[C@H](C)C[C@H](N(C)C)C2O)[C@](C)(O)C[C@@H](C)CN(C)[C@H](C)[C@@H](O)[C@]1(C)O (stereo in doubt) [Example 12] , system human IL-1β, measured inhibition at 10 µM is 50

* * *

tested on: human TNF-α; assay: Inhibition of TNF-α production by stimulated human peripheral blood leukocytes in vitro (ELISA); format: cell-based; settings: Homo sapiens, Leukocyte, PBL, LPS stimulation, compound 10 μM; read-out: Percentage of inhibition of TNF-α production
measure: inhibition at 10 µM (%)
Numbers only here, please. The scale is %.

CC[C@H]1OC(=O)[C@H](C)[C@@H](OC(=O)CCN(CC)CC)[C@H](C)[C@@H](O[C@@H]2O[C@H](C)C[C@H](NC)[C@@H]2O)[C@](C)(OC)C[C@@H](C)C(=O)N[C@H](C)[C@@H](O)[C@]1(C)O	6
CC[C@H]1OC(=O)[C@H](C)[C@@H](OC(=O)CCN2CCN(CCN(CC)CC)CC2)[C@H](C)[C@@H](O[C@@H]2O[C@H](C)C[C@H](N(C)C)[C@H]2O)[C@](C)(OC)C[C@@H](C)C(=O)N[C@H](C)[C@@H](O)[C@]1(C)O	7
C=CC(=O)O[C@H]1[C@H](C)[C@@H](O[C@@H]2O[C@H](C)C[C@H](N(C)C)[C@H]2O)[C@](C)(OC)C[C@@H](C)C(=O)[C@H](C)[C@@H](O)[C@](C)(O)[C@@H](CC)OC(=O)[C@@H]1C	0

// switching to the query compound
// inhibition at 10 µM value for CC[C@H]1OC(=O)[C@H](C)[C@@H](O[C@H]2C[C@@](C)(OC)[C@@H](O)[C@H](C)O2)[C@H](C)[C@@H](O[C@@H]2O[C@H](C)C[C@H](N(C)C)[C@H]2O)[C@](C)(O)C[C@@H](C)CN(C)[C@H](C)[C@@H](O)[C@]1(C)O [azithromycin, reference compound] : 36
